Just for reference, PubChem BioAssay is where these values come from.

# composite z-score per entry
Target: Follistatin-related protein 3 (Homo sapiens) (UniProt O95633)
Sequence (O95633 whole entry, looked up): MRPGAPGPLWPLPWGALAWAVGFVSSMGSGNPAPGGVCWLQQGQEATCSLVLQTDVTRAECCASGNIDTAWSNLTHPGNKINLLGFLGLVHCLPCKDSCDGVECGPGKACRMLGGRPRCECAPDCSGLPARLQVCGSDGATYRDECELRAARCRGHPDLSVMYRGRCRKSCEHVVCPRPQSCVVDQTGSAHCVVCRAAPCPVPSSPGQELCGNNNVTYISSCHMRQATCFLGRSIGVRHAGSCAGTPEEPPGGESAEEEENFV
Assay: compounds binding follistatin-related protein 3 – biochemical, small-molecule microarray, 635 nm fluorescence, primary screen (AID 1105);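 note: score merges emission near 667 nm and signal to noise per printed spot across three slides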
Details: FSTL3 binding, higher = more signal
Number only, no unit.

Study these solved cases before continuing.
compound=CC(C)OC(=O)C=C1C[C@@H](c2cccc(Cl)c2)O[C@@H](c2cccc(Cl)c2)O1 endpoint_value=-0.901
compound=COC(=O)[C@@]1(Cc2ccc(OC)cc2)[C@H]2c3cc(C(=O)N4CCCC4)n(Cc4nc5ccccc5[nH]4)c3C[C@H]2CN1C(=O)c1ccccc1 endpoint_value=1.05
compound=NCCCCCNC(=O)[C@H]1C[C@H]2C(=O)N[C@@H](Cc3ccccc3)C(=O)N2[C@H]1c1cccc(OCCO)c1 endpoint_value=0.6
compound=C[N+](C)(C)CCCCCCNC(=O)[C@H]1C[C@H]2C(=O)N[C@@H](Cc3ccccc3)C(=O)N2[C@H]1c1cccc(OCCO)c1 endpoint_value=1.09
compound="CC(c1ccccc1)C(O)C1C=CC2C(=O)N(C)C(=O)C2N1NC(=O)OC(C)(C)C (stereo not given)" endpoint_value=0.907

# composite z-score (compound: COc1cc(OC)c(C(O)C2C=CC3C(=O)NC(=O)C3N2Nc2ccccn2)cc1Br (stereo not given) ) is 0.835

The compound `[N-]=[N+]=NCc1ccccc1[C@@H]1OC(c2ccc(OCCCO)cc2)=N[C@]1(CCS(=O)(=O)c1ccccc1)C(=O)N1CCCCC1` showed composite z-score equal to 1.19

====

Assay: small molecules captured by biotinylated probe aFST – biochemical, small-molecule microarray, fluorescence 635/667, stem cell growth factor project, primary screen (AID 1086);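 note: score merges 667 nm fluorescence with signal-to-noise of each printed compound spot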
Details: higher = more signal
Quick reference: composite z-score of the listed items.
Form field (numeric): enter value without unit.

Observe how each entry below is paired with its result.
compound="CN1C(=O)C2C=CC(C(O)c3ccccc3)N(N3CCCCC3)C2C1=O (centres undefined)" property="composite z-score" endpoint_value=0.406
compound=CC(C)[C@@H](C(=O)O)n1cc(C2(O)CCCCC2)nn1 property="composite z-score" endpoint_value=0.27
compound=[N-]=[N+]=NCc1ccccc1[C@@H]1OC(c2ccc(OCCCO)cc2)=N[C@]1(CCS(=O)(=O)c1ccccc1)C(=O)N1CCCCC1 property="composite z-score" endpoint_value=1.69
compound=O=c1cccc(-c2ccccc2Cl)o1 property="composite z-score" endpoint_value=0.241
compound=COC(=O)C(CC#Cc1ccc2c(c1)[C@]1(C(=O)N2)[C@H](c2ccccc2OCCO)N2[C@H](c3ccccc3)[C@H](c3ccccc3)OC(=O)[C@H]2[C@@H]1C(N)=O)C(=O)OC property="composite z-score" endpoint_value=1.84
compound="O=C1C2C=CC(C(O)C=Cc3ccc([N+](=O)[O-])cc3)N(n3cnnc3)C2C(=O)N1Cc1ccccc1 (centres undefined)" property="composite z-score" endpoint_value=1.09
compound="CN1CCC(CCCO)=CC1c1cccs1 (centres undefined)" property="composite z-score" endpoint_value=-0.142
compound=CC(C)OC(=O)C=C1C[C@@H](c2cccc(Cl)c2)O[C@@H](c2cccc(Cl)c2)O1 property="composite z-score" endpoint_value=0.186

Given item `CC(=O)Nc1cc(Br)ccc1C(=O)NCc1ccccc1` , the value recorded as its composite z-score is -0.0314

The compound listed as CCCCCCCCCCC(O)C1C=CC2C(=O)NC(=O)C2N1Nc1ccc(Cl)cc1Cl (centres undefined) has a reported composite z-score of 0.0804

Notebook: `Cc1c(NC(=O)/C(C#N)=C/c2cccc([N+](=O)[O-])c2)c(=O)n(-c2ccccc2)n1C` , composite z-score read as -0.0089

Data point: `CC(C)CNC(=O)[C@@]1(Cc2ccccc2I)c2ccccc2C(=O)N(Cc2ccccc2C(F)(F)F)[C@H]1c1ccc(CO)cc1` ; composite z-score = -0.374

composite z-score measured on O=C1OCCC=C[C@H]2OC34C=CCN(Cn5nnc6ccccc65)C(=O)[C@H]3N(CCO)C(=O)[C@@H]4C12 (some centres undefined) = -0.8

Memo: CC(CO)N1C(=O)[C@@H]2C3C(=O)OCCC/C=C\[C@H]3OC23C=CCN(CCN2CCOCC2)C(=O)[C@@H]13 (some centres undefined) , reported composite z-score: -0.28

Reported composite z-score ( CCC(CC)C(O)C1C=CC2C(=O)N(c3ccccc3)C(=O)C2N1Nc1ccccc1 (centres undefined) ) = 1.42

The compound identified as `COc1cc(CO)cc(I)c1O[C@H]1C=C(C(=O)NCCO)C[C@@H](NC[C@@H]2CCCO2)[C@@H]1O` registered its composite z-score at 0.59

Looking up `COC(=O)C(CC#Cc1ccc2c(c1)[C@]1(C(=O)N2)[C@H](c2ccccc2OCCO)N2[C@H](c3ccccc3)[C@H](c3ccccc3)OC(=O)[C@H]2[C@@H]1C(=O)O)C(=O)OC` , I found its composite z-score recorded as 0.411

====

composite z-score values by entry
System: Neuregulin-1 EGF-like domain
Test: small molecules binding NRG1 EGF domain – biochemical, small-molecule microarray, 635 nm fluorescence, primary screen (AID 1081);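 note: binding of the protein to compounds printed on small-molecule microarray slides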
Conditions: higher = more signal
Would you mind answering with just the numeric figure?

molecule="CC=CC(O)C1C=CC2C(=O)N(C)C(=O)C2N1N(c1ccccc1)c1ccccc1 (stereo not drawn)" endpoint_value=1.12

The recorded composite z-score for entry `O=C(CS)NCCCCCNC(=O)[C@H]1C[C@H]2C(=O)NCC(=O)N2[C@H]1c1ccc(O)cc1` equals -0.0307

Form: molecule = COc1cc2c(cc1O)C(c1cccs1)N(Cc1ccc([N+](=O)[O-])o1)CC2 (stereo not drawn) ; composite z-score = 0.387

Given item O=C1C2C=CC(C(O)COCc3ccccc3)N(Nc3ccc([N+](=O)[O-])cc3)C2C(=O)N1c1ccccc1 (stereo not drawn) , the value recorded as its composite z-score is 1.32

// field: composite z-score; key: `COCCOC(=O)N1C(=O)[C@@]2(c3cc(C#CC4(O)CCCCCC4)ccc31)[C@H](c1ccccc1OCCO)N1[C@H](c3ccccc3)[C@H](c3ccccc3)OC(=O)[C@H]1[C@@H]2C(=O)N1CCc2cc(OC)c(OC)cc2C1` ; value = 1.19

// sample `CCCNC(=O)[C@@]1(Sc2ccc(C)cc2)CC(=O)N(Cc2ccccc2C(F)(F)F)[C@@H]1c1ccc(CO)cc1I` , its composite z-score was 1.07

For record `CC(C)[Si](C#CCCCC#N)(Oc1ccccc1Br)C(C)C` the listed composite z-score is 0.204

Entry C=C(C)[C@@H]1CC=C(C(O)C2C=CC3C(=O)NC(=O)C3N2Nc2ccc(Cl)cc2Cl)CC1 (stereo partly drawn) , composite z-score reported as 0.953

====

Assay: small molecules captured by biotinylated probe aFGF2 – biochemical, small-molecule microarray, fluorescence 635/667, stem cell growth factor project, primary screen (AID 1067);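 note: measures binding of biotinylated aFGF2 protein to printed compounds on slides; z-score merges feature fluorescence and signal-to-noise across triplicate slides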
Details: higher = more signal
// reported composite z-score for each item listed
The answer should be written as a number, with no unit following it.

Reference set (7 entries):
compound=CN(C)C(=O)[C@]1(Cc2ccccc2)N=C(c2ccc(OCCCO)cc2)O[C@@H]1c1ccccc1N=[N+]=[N-] endpoint_value=0.0797
compound=COc1ccc(-c2cc3c(c(Cc4ccccc4)n2)[Si](C(C)C)(C(C)C)OC3)cn1 endpoint_value=-0.0668
compound="CC1CC/C=C\\[C@H]2OC34C=CCN(Cc5ccccc5)C(=O)[C@H]3N(C(C)CO)C(=O)[C@@H]4C2C(=O)O1 (stereo partly drawn)" endpoint_value=-0.138
compound=Cc1ccc(S[C@]2(C(=O)O)CC(=O)N(Cc3ccccc3C(F)(F)F)[C@@H]2c2ccc(CO)cc2I)cc1 endpoint_value=-0.1
compound=COC(=O)c1c2oc(c1C(=O)OC)C(=O)NC1(CCCCC1)c1cn(nn1)C[C@H](Cc1ccccc1)NC(=O)N[C@H](CO)CC2 endpoint_value=-0.13
compound="COc1ccc(C(O)C2C=CC3C(=O)N(C)C(=O)C3N2N(c2ccccc2)c2ccccc2)c2ccccc12 (stereo not drawn)" endpoint_value=0.0346
compound=COCCCNC(=O)[C@@H]1c2ccccc2C(=O)N(Cc2ccccc2)[C@H]1c1ccc(CO)cc1 endpoint_value=-0.0952

Sure, the documented composite z-score for O=C1OCCC=C[C@H]2OC34C=CCN(CCN5CCOCC5)C(=O)[C@H]3N(CCCCCO)C(=O)[C@@H]4C12 (stereo partly drawn) is -0.203

====

System: XIP peptide (Xip251-270) binding
Assay: XIP fragment 251-270 binding compounds – biochemical, small-molecule microarray, fluorescence 635/667 nm, 0.1 µg/mL protein, primary screen (AID 1182)
Conditions: fluorescent protein binding, 635 nm, higher = more signal, called active from +8 up or from −8 down
property: composite z-score
Lab note: jot down the number only; don't add units.

Check out these entries, answers already filled in.
compound="O=C1NC(=O)C2C1C=CC(C(O)c1ccc(I)cc1)N2Nc1ccccn1 (stereo not drawn)" property="composite z-score" endpoint_value=0.932
compound="CC(C)=CCCC(C)=CC(O)C1C=CC2C(=O)N(c3ccccc3)C(=O)C2N1Nc1ccc(C(C)C)cc1 (stereo not drawn)" property="composite z-score" endpoint_value=0.365
compound="CCOc1cc(C(O)C2C=CC3C(=O)N(c4ccccc4)C(=O)C3N2Nc2ccc(C(C)C)cc2)ccc1O (stereo not drawn)" property="composite z-score" endpoint_value=0.429
compound="CS(=O)(=O)CCOC(=O)C1=CC(CCCO)=CC(c2ccc(CN3CCCC3)cc2)N(Cc2cccc(OC(F)(F)F)c2)C=C1C(=O)OCCS(C)(=O)=O (stereo not drawn)" property="composite z-score" endpoint_value=0.211

Consider `[N-]=[N+]=Nc1ccccc1C[C@]1(C(=O)N2CCCCC2)COC(c2ccc(OCCCO)cc2)=N1` . Its measured composite z-score is 1.98

Given item `COc1ccc([Si](C)(C)[C@@H]2[C@@H](CCn3cc([C@H](O)c4ccccc4)nn3)O[C@]3(C(=O)N(Cc4cccc(N5CCC5=O)c4)c4ccccc43)[C@H]2C)cc1` , the value recorded as its composite z-score is 0.863

// sample `CCCC[C@H]1C[C@@H]1[C@@H]1N(P(=O)(c2ccccc2)c2ccccc2)C[C@@](O)(c2ccccc2)CC12CC2` , its composite z-score was -0.0646

Notebook: Cc1ccc(C2C3C(=O)CC4C(=O)N(c5ccccc5)C(=O)C4C3CN2S(=O)(=O)c2ccc(C)cc2)cc1 (stereo not drawn) , composite z-score read as 0.053
